Assay: Naked antibody content of antibody-drug conjugates by hydrophobic interaction chromatography (HIC)
Assay type: physicochemical
Details: ADC with Her2 antibody
*1 amine or outer side, *2 acyl side, *3 side chain or, on linkers, in order; H or OH if unused. Where a SMILES comes first, the peptide text is derived from it. [ ]: non-standard residue; d: D form. The star is where a group is joined. ξ: configuration not given here. MaleimidoPEG4propanoyl = O=C1C=CC(=O)N1CCOCCOCCOCCOCCC(=O)*; Dolaproine = CO[C@@H]([C@@H]1CCCN1)[C@@H](C)C(=O)O; X2 = CO[C@@H]([C@H]1CCCN1[*:1])[C@@H](C)C(=O)[*:2]; ξDil = CC[C@H](C)C([C@@H](CC(=O)[*:2])OC)N(C)[*:1]; Hexanoyl(6-maleimido) = O=C1C=CC(=O)N1CCCCCC(=O)*; Propanoyl(3-maleimido) = O=C1C=CC(=O)N1CCC(=O)*; Dil = CC[C@H](C)[C@H](NC)[C@@H](CC(=O)O)OC; X1 = O=C(CN1CCOCCN([*:1])CCOCC1)[*:2]; PABC = O=C(OCc1ccc(N[*:1])cc1)[*:2]; X3 = C[C@@H](N*)[C@@H](O)c1ccccc1; NMeV = CN[C@H](C(=O)O)C(C)C
Give measured Naked antibody content (%) for each item. Keep answers brief.
One number for each entry, in %.

Sample records with Naked antibody content (%):
[[record]]
compound = "CC[C@H](C)C([C@@H](CC(=O)N1CCC[C@@H]1[C@H](OC)[C@@H](C)C(=O)N[C@H](C)[C@@H](O)c1ccccc1)OC)N(C)C(=O)[C@@H](NC(=O)[C@H](C(C)C)N(C)C(=O)OCc1ccc(NC(=O)CNC(=O)[C@H](Cc2ccccc2)NC(=O)CNC(=O)CNC(=O)CCN2C(=O)C=CC2=O)cc1)C(C)C (stereo partly shown) [Comparative Example 8, reference compound] ({Propanoyl(3-maleimido)}-GGFG[PABC][NMeV]V[ξDil][X2]-X3)"
recordedresult = 10.15

[[record]]
compound = "C=C1C[C@@H]2CC[C@@]34C[C@H]5OC6C(O[C@H]7CC[C@H](CC(=O)C[C@@H]8[C@@H](OC)[C@@H](C[C@H](O)CNC(=O)CNC(=O)[C@H](Cc9ccccc9)NC(=O)CNC(=O)CNC(=O)CCN9C(=O)C=CC9=O)O[C@H]8C[C@H]8O[C@@H](CC[C@@H]1O2)C[C@@H](C)C8=C)O[C@@H]7[C@@H]6O3)[C@H]5O4 [Comparative Example 12, reference compound]"
recordedresult = 7.00

[[record]]
compound = "CC[C@@]1(O)C(=O)OCc2c1cc1n(c2=O)Cc2c-1nc1cc(F)c(C)c3c1c2[C@@H](NC(=O)COCNC(=O)CNC(=O)CNC(=O)CNC(=O)CN1CCOCCN(C(=O)CCN2C(=O)C=CC2=O)CCOCC1)CC3 [Example 28]"
recordedresult = 2.76

[[record]]
compound = "C=C1C[C@@H]2CC[C@@]34C[C@H]5OC6C(O[C@H]7CC[C@H](CC(=O)C[C@@H]8[C@@H](OC)[C@@H](C[C@H](O)CNC(=O)CNC(=O)[C@H](Cc9ccccc9)NC(=O)CNC(=O)CNC(=O)CN9CCOCCOCCN(C(=O)CCCCCN%10C(=O)C=CC%10=O)CCOCCOCC9)O[C@H]8C[C@H]8O[C@@H](CC[C@@H]1O2)C[C@@H](C)C8=C)O[C@@H]7[C@@H]6O3)[C@H]5O4 [Example 39]"
recordedresult = 0.00

[[record]]
compound = "CC[C@H](C)[C@@H]([C@@H](CC(=O)N1CCC[C@H]1[C@H](OC)[C@@H](C)C(=O)N[C@H](C)[C@@H](O)c1ccccc1)OC)N(C)C(=O)[C@@H](NC(=O)[C@H](C(C)C)N(C)C(=O)OCc1ccc(NC(=O)CNC(=O)[C@H](Cc2ccccc2)NC(=O)CNC(=O)CNC(=O)CCCCCN2C(=O)C=CC2=O)cc1)C(C)C [Comparative Example 1, reference compound] ({Hexanoyl(6-maleimido)}-GGFG[PABC][NMeV]V[Dil][Dolaproine]-X3)"
recordedresult = 23.50

[[record]]
compound = "C=C1C[C@@H]2CC[C@@]34C[C@H]5OC6C(O[C@H]7CC[C@H](CC(=O)C[C@@H]8[C@@H](OC)[C@@H](C[C@H](O)CNC(=O)CNC(=O)[C@H](Cc9ccccc9)NC(=O)CNC(=O)CNC(=O)CN9CCOCCN(C(=O)CCN%10C(=O)C=CC%10=O)CCOCC9)O[C@H]8C[C@H]8O[C@@H](CC[C@@H]1O2)C[C@@H](C)C8=C)O[C@@H]7[C@@H]6O3)[C@H]5O4 [Example 21]"
recordedresult = 2.56

[[record]]
compound = "CC[C@H](C)[C@@H]([C@@H](CC(=O)N1CCC[C@@H]1[C@H](OC)[C@@H](C)C(=O)N[C@H](C)[C@@H](O)c1ccccc1)OC)N(C)C(=O)[C@@H](NC(=O)[C@H](C(C)C)N(C)C(=O)OCc1ccc(NC(=O)CNC(=O)[C@H](Cc2ccccc2)NC(=O)CNC(=O)CN2CCOCCN(C(=O)CCN3C(=O)C=CC3=O)CCOCC2)cc1)C(C)C [Example 86] ({Propanoyl(3-maleimido)}-[X1]GFG[PABC][NMeV]V[Dil][X2]-X3)"
recordedresult = 3.45

[[record]]
compound = "CCc1c2c(nc3ccc(O)cc13)-c1cc3c(c(=O)n1C2)COC(=O)[C@@]3(CC)OC(=O)N(C)CCN(C)C(=O)COCNC(=O)CNC(=O)[C@H](Cc1ccccc1)NC(=O)CNC(=O)CNC(=O)CCN1C(=O)C=CC1=O [Comparative Example 6, reference compound]"
recordedresult = 9.06

[[record]]
compound = "CCc1c2c(nc3ccc(O)cc13)-c1cc3c(c(=O)n1C2)CCC(=O)[C@@]3(CC)OC(=O)N(C)CCN(C)C(=O)COCNC(=O)CNC(=O)[C@H](Cc1ccccc1)NC(=O)CNC(=O)CNC(=O)CN1CCOCCN(C(=O)CCN2C(=O)C=CC2=O)CCOCC1 [Example 23]"
recordedresult = 0.00


Data point: CC[C@H](C)[C@@H]([C@@H](CC(=O)N1CCC[C@@H]1[C@H](OC)[C@@H](C)C(=O)N[C@H](C)[C@@H](O)c1ccccc1)OC)N(C)C(=O)[C@@H](NC(=O)[C@H](C(C)C)N(C)C(=O)OCc1ccc(NC(=O)CNC(=O)[C@H](Cc2ccccc2)NC(=O)CNC(=O)CNC(=O)CN2CCOCCN(C(=O)CCOCCOCCOCCOCCN3C(=O)C=CC3=O)CCOCC2)cc1)C(C)C [Example 85] (MaleimidoPEG4propanoyl-[X1]GGFG[PABC][NMeV]V[Dil][X2]-X3) ; Naked antibody content (%) = 1.98
